# target.entity: MCL-1 (Homo sapiens (Human), UniProt Q07820, K194A/K197A/R201A)
# method.description: Protein-compound interaction assay (SPR assay, Assay 9)
# setup.conditions: KD (geometric mean), SPR, 25° C.
# Sequence (Q07820 whole entry K194A/K197A/R201A, looked up): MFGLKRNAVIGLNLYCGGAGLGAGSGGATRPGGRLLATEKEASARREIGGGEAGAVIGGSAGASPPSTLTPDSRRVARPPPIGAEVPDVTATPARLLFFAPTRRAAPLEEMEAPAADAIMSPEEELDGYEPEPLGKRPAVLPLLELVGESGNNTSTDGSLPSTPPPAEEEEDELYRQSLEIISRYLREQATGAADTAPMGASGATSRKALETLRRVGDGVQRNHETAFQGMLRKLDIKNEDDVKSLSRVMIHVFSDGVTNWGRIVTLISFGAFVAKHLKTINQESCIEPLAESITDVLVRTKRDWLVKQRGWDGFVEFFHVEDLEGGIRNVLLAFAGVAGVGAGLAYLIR
This section presents molecules with their documented pKd values.
Friendly reminder that pKd comes from taking -log10 of the concentration in mol/L.

Study these solved cases before continuing.
molecule	target.entity	pKd
CCc1c2c(nn1C)C(CCC(C)(C)O)OCCCCn1c(C(=O)O)c(CCCOc3cccc4cc(F)ccc34)c3ccc(Cl)c-2c31 (single isomer, unassigned; enantiomer 1)	MCL-1 (Homo sapiens (Human), UniProt Q07820, K194A/K197A/R201A)	9.62
Cc1c2c(nn1C)C(C)OCCCCn1c(C(=O)O)c(CCCOc3cccc4ccccc34)c3cccc-2c31 (single isomer, unassigned; stereoisomer 1)	MCL-1 (Homo sapiens (Human), UniProt Q07820, K194A/K197A/R201A)	7.96

// pKd lookup, key: Cc1c2c(nn1C)C(CCN1CCOCC1)OCCCCn1c(C(=O)O)c(CCCOc3cccc4cc(F)ccc34)c3ccc(F)c-2c31 (single isomer, unassigned; enantiomer 1)
9.25

Please answer likewise for Cc1c2c(nn1C)C(CCO)OCCCCn1c(C(=O)O)c(CCCOc3cccc4ccccc34)c3ccc(Cl)c-2c31 (single isomer, unassigned; enantiomer 1)
8.74

Repeat with CCC1OCCCCn2c(C(=O)O)c(CCCOc3cccc4ccccc34)c3ccc(Cl)c(c32)-c2c1nn(C)c2C (single isomer, unassigned; enantiomer 1)
8.08

What do we get for CCc1c2c(nn1C)C(CCOC)OCCCCn1c(C(=O)O)c(CCCOc3cccc4cc(F)ccc34)c3ccc(Cl)c-2c31 (single isomer, unassigned; enantiomer 1) ?
8.55

Also CCc1c2c(nn1C)C(CCC1CCOCC1)OCCCCn1c(C(=O)O)c(CCCOc3cccc4cc(F)ccc34)c3ccc(Cl)c-2c31 (single isomer, unassigned; enantiomer 1) [Example 61] ?
8.89

What about Cc1c2c(nn1C)C(CCN1CCOCC1)OCCCCn1c(C(=O)O)c(CCCOc3cccc4ccccc34)c3ccc(Cl)c-2c31 (single isomer, unassigned; enantiomer 1) ?
8.89

* * *

# target.entity: MCL-1 (Homo sapiens (Human), UniProt Q07820, K194A/K197A/R201A)
# method.description: Protein-compound interaction assay (SPR assay, Assay 9)
# Assay type: binding
# setup.conditions: read-out: koff (geometric mean), SPR, 25° C.
The following molecules are shown together with reported log10 koff values.
Values below are the log10 of the recorded koff, with s⁻¹ as the unit.

Could you tell me which log10 koff is on file for CCc1c2c(nn1C)C(CCO)OCCCCn1c(C(=O)O)c(CCCOc3cccc4cc(F)ccc34)c3ccc(Cl)c-2c31 (single isomer, unassigned; enantiomer 1) ?
-2.17

Lookup Cc1c2c(nn1C)C(CCN1CCOCC1)OCCCCn1c(C(=O)O)c(CCCOc3cccc4cc(F)ccc34)c3ccc(Cl)c-2c31 (single isomer, unassigned; enantiomer 1)
-1.82

Similarly, CCc1c2c(nn1C)C(CCN1CCOCC1)OCCCCn1c(C(=O)O)c(CCCOc3cccc4ccccc34)c3ccc(F)c-2c31 (racemic) [Example 10] ?
-2.00

// same read-out, input: CCc1c2c(nn1C)C(CCN1CCOCC1)OCCCCn1c(C(=O)O)c(CCCOc3cccc4ccccc34)c3ccc(F)c-2c31 (single isomer, unassigned; enantiomer 1) [Example 11]
-2.42

What do we get for CCC1OCCCCn2c(C(=O)O)c(CCCOc3cccc4ccccc34)c3ccc(Cl)c(c32)-c2c1nn(C)c2C (single isomer, unassigned; enantiomer 1) ?
-1.85

* * *

# System: SUDHL5 cells
# method.description: Induction of cytotoxicity in SUDHL5 cells (Assay 6)
# Format: cell-based
# setup.conditions: 5 h, CellTiter-Glo; read-out: Cytotox SUDHL5 IC50 (median)
pIC50: −log10 of the molar value.
Bucketed by reported pIC50, buckets being bottom end: < 6; midrange: ≥ 6 and < 7; top end: ≥ 7

compound	label.class
Cc1c2c(nn1C)C(CCO)OCCCCn1c(C(=O)O)c(CCCOc3cccc4ccccc34)c3ccc(Cl)c-2c31 (single isomer, unassigned; enantiomer 2) [Example 32]	bottom end
CCc1c2c(nn1C)C(CCN1CCOCC1)N(C)CCCCn1c(C(=O)O)c(CCCOc3cccc4cc(F)ccc34)c3ccc(Cl)c-2c31 (racemic) [Example 93]	top end
Cc1c2c(nn1C)C(CCN1CCOCC1)OCCCCn1c(C(=O)O)c(CCCOc3cccc4ccccc34)c3ccc(Cl)c-2c31 (single isomer, unassigned; enantiomer 1) [Example 14]	top end
CCc1c2c(nn1C)C(CCC1CCOCC1)OCCCCn1c(C(=O)O)c(CCCOc3cccc4cc(F)ccc34)c3ccc(Cl)c-2c31 (single isomer, unassigned; enantiomer 1) [Example 61]	top end

Tag the class for CCc1c2c(nn1C)C1CCCN1CCCCn1c(C(=O)O)c(CCCOc3cccc4cc(F)ccc34)c3ccc(Cl)c-2c31 (single isomer, unassigned; (+)) [Example 105]
midrange

And the next one, CCc1c2c(nn1C)C(CCN(C)C)OCCCCn1c(C(=O)O)c(CCCOc3cccc4cc(F)ccc34)c3ccc(Cl)c-2c31 (single isomer, unassigned) [Example 84] ?
bottom end

Please do the same for CCc1c2c(nn1C)C(CCC(C)(C)O)OCCCCn1c(C(=O)O)c(CCCOc3cccc4cc(F)ccc34)c3ccc(Cl)c-2c31 (single isomer, unassigned; enantiomer 1) [Example 75] as well.
top end

Would you kindly repeat that for CCc1c2c(nn1C)[C@@H](CCN1CCOCC1)OCCCCn1c(C(=O)O)c(CCCOc3cccc4cc(F)ccc34)c3ccc(Cl)c-2c31 [Example 48] ?
midrange

For CCc1c2c(nn1C)C(CCN(C)C)OCCCCn1c(C(=O)O)c(CCCOc3cccc4cc(F)ccc34)c3ccc(Cl)c-2c31 (single isomer, unassigned) [Example 82] then?
bottom end

* * *

We begin with a simple list: items and their reported pIC50.
# Test system: PA-1 cells
# method.description: Antiproliferation assay PA-1 (Assay 7)
# Format: cell-based
# setup.conditions: Homo sapiens, PA-1, 72 h, read-out: Antiproli PA-1 IC50 median
The meaning of pIC50 here: minus log10 of the concentration in molar units.

Recorded pIC50, per entry:
compound	pIC50
CCc1c2c(nn1C)C(CCN1CCN(C)CC1)OCCCCn1c(C(=O)O)c(CCCOc3cccc4cc(F)ccc34)c3ccc(Cl)c-2c31 (single isomer, unassigned; stereoisomer 1) [Example 69]	6.10
CCc1c2c(nn1C)C(CCC1CCOCC1)OCCCCn1c(C(=O)O)c(CCCOc3cccc4cc(F)ccc34)c3ccc(Cl)c-2c31 (single isomer, unassigned; enantiomer 1) [Example 63]	6.69

What does the data say about its pIC50? Entry: Cc1c2c(nn1C)C(CCN1CCOCC1)OCCCCn1c(C(=O)O)c(CCCOc3cccc4cc(F)ccc34)c3ccc(F)c-2c31 (single isomer, unassigned; enantiomer 1) [Example 20]
6.52

* * *

Listing of recorded log10 IC50 by entry.
# target.entity: MCL-1 (Homo sapiens (Human), UniProt Q07820, K194A/K197A/R201A)
# method.description: Protein-protein interaction assay MCL-1/Noxa BH3 peptide (MCL-1 assay, TR-FRET)
# Type: binding
# setup.conditions: MCL-1 Assay IC50 (median)
# Sequence (Q07820 whole entry, looked up, stated change not applied): as the sequence (Q07820 whole entry K194A/K197A/R201A, looked up) above, with A194K, A197K, A201R counted along it
Annotation: log10 of IC50, nM basis.

molecule	log10 IC50
Cc1c2c(nn1C)C(CCN1CCOCC1)OCCCCn1c(C(=O)O)c(CCCOc3cccc4ccccc34)c3ccc(Cl)c-2c31 (single isomer, unassigned; enantiomer 1) [Example 14]	-0.28
CCc1c2c(nn1C)C(CCCN1CCOCC1)OCCCCn1c(C(=O)O)c(CCCOc3cccc4cc(F)ccc34)c3ccc(Cl)c-2c31 (racemic) [Example 65]	0.11
Cc1c2c(nn1C)C(CCN1CCOCC1)OCCCCn1c(C(=O)O)c(CCCOc3cccc4cc(F)ccc34)c3ccc(Cl)c-2c31 (racemic) [Example 16]	0.30

Please give the measured log10 IC50 for this molecule: CCc1c2c(nn1C)C1CCCCN1CCCCn1c(C(=O)O)c(CCCOc3cccc4ccccc34)c3ccc(Cl)c-2c31 (racemic)
0.15

Would you kindly repeat that for CCc1c2c(nn1C)C(CCN1CC(F)C1)OCCCCn1c(C(=O)O)c(CCCOc3cccc4cc(F)ccc34)c3ccc(Cl)c-2c31 (racemic) ?
0.08

What do you get for CCc1c2c(nn1C)C(CCC1CCOCC1)OCCCCn1c(C(=O)O)c(CCCOc3cccc4cc(F)ccc34)c3ccc(Cl)c-2c31 (single isomer, unassigned; enantiomer 2) [Example 62] ?
2.08

Field entry: Cc1c2c(nn1C)C(C)OCCCCn1c(C(=O)O)c(CCCOc3cccc4ccccc34)c3cccc-2c31 (racemic) [Example 1]
0.34

Try CCC1OCCCCn2c(C(=O)O)c(CCCOc3cccc4ccccc34)c3ccc(Cl)c(c32)-c2c1nn(C)c2C (racemic) next.
0.28

Please answer likewise for Cc1c2c(nn1C)C(CCN1CCOCC1)OCCCCn1c(C(=O)O)c(CCCOc3cccc4ccccc34)c3ccc(Cl)c-2c31 (single isomer, unassigned; enantiomer 2) [Example 15]
1.81

Ok, now Cc1c2c(nn1C)C(CCN1CCOCC1)OCCCCn1c(C(=O)O)c(CCCOc3cccc4cc(F)ccc34)c3ccc(F)c-2c31 (single isomer, unassigned; enantiomer 2) [Example 21]
2.20

And for CCc1c2c(nn1C)C1CCCN1CCCCn1c(C(=O)O)c(CCCOc3cccc4cc(F)ccc34)c3ccc(Cl)c-2c31 (racemic) [Example 107] ?
0.04

Could you do the same for Cc1c2c(nn1C)C(CCN1CCOCC1)OCCCCn1c(C(=O)O)c(CCCOc3cccc4ccccc34)c3cccc-2c31 (single isomer, unassigned; stereoisomer 1) [Example 5] , please?
0.08
